Measurement notes: Pharmacokinetics of AT and NT in healthy volunteers after a single dose of 25 mg amitriptyline
Format: in vivo, human
Measurement parameters: both sexes, human, plasma, po, 25 mg, healthy volunteers, single oral 25 mg AT, plasma; 0 active OCT1 alleles (n = 12); read-out: AUCinf
Recorded endpoint: AUC(0-inf)
Please state the number and follow it with the unit.

Which AUC(0-inf) is reported for this molecule? CN(C)CCC=C1c2ccccc2CCc2ccccc21
199 ng·h/mL

====

Measurement notes: Pharmacokinetics of AT and NT in healthy volunteers after a single dose of 25 mg amitriptyline
Format: in vivo, human
Measurement parameters: both sexes, human, plasma, po, 25 mg, healthy volunteers, single oral 25 mg AT; OCT1 genotype *1 / *4 (n 2); mean ± standard deviation; read-out: AUC48h
Recorded endpoint: AUC(0-t) (ng·h/mL)
Give the quantity in ng·h/mL, number only.

Which AUC(0-t) is reported for this compound? CNCCC=C1c2ccccc2CCc2ccccc21 [Nortriptyline, nortriptyline]
69
